Across several publications, the following IC50 results were reported for human DGAT1 (Homo sapiens).
recorded endpoint: IC50

{"compound": "COc1ccc(CNC(=O)c2ccc(N3CCN(C(=O)Nc4c(Cl)cc(CC(=O)N5CCN(C)CC5)cc4Cl)CC3)cc2)cc1", "measured on": "human DGAT1 (Homo sapiens)", "obs value": "19.1 nM"}
{"compound": "O=C(CCCc1ccccc1)Nc1ccc(N2CCN(C(=O)C(O)c3c(Cl)cccc3Cl)CC2)cc1 (stereo not shown)", "measured on": "human DGAT1 (Homo sapiens)", "obs value": "58.9 nM"}
{"compound": "CCOc1ccccc1NC(=O)N1CCN(c2ccc(NC(=O)c3ccccc3-c3ccc(C(F)(F)F)cc3)cc2)CC1", "measured on": "human DGAT1 (Homo sapiens)", "obs value": "8130 nM"}
{"compound": "O=C(O)CC1(CC(F)(F)F)CCc2cc(-c3ccc(Nc4ccc(Cl)cn4)cn3)ccc2C1=O (single isomer, unassigned)", "measured on": "human DGAT1 (Homo sapiens)", "obs value": "≤ 100 nM"}

* * *

Across several publications, the following log10(IC50) results were reported for human DGAT1 (Homo sapiens, UniProt O75907).
recorded endpoint: log10(IC50) (log10 of the value in nM)

{"compound": "O=C(O)C1(C(=O)O)CC(OC2CCN(c3ccc(-c4nc5cc(F)c(F)cc5[nH]4)cn3)CC2)C1", "log10(IC50)": 2.09}
{"compound": "O=C(NCc1cccc(N2CCCC2)c1)c1ccc(N2CCN(C(=O)Nc3c(Cl)cc(CN4CCCC4)cc3Cl)CC2)cc1", "log10(IC50)": 0.92}
{"compound": "COc1ccccc1CNC(=O)N1CCN(c2ccc(NC(=O)CCCc3ccccc3)cc2)CC1", "log10(IC50)": 3.03}
{"compound": "CCC(N)C(=O)Nc1ccc(C2CCN(C(=O)Nc3c(Cl)cccc3Cl)CC2)cc1 (stereo not drawn)", "log10(IC50)": 3.84}
{"compound": "O=C(Nc1ccc(N2CCN(C(=O)Nc3ccccc3I)CC2)cc1)c1ccccc1-c1ccc(C(F)(F)F)cc1", "log10(IC50)": 3.18}
{"compound": "CC(C)N(NC(=O)c1cccc(Cl)c1)C(=O)/C=C/c1cn(C(=O)OC(C)(C)C)c2ccccc12", "log10(IC50)": 3.34}
{"compound": "CC(C)(C)OC(=O)N1CCCC1C(=O)Nc1ccc(C2CCN(C(=O)Nc3c(Cl)cccc3Cl)CC2)cc1 (stereo not drawn)", "log10(IC50)": 2.69}

* * *

Across several publications, the following IC50 results were reported for human DGAT1 (Homo sapiens, UniProt O75907).
recorded endpoint: IC50 (nM)

{"smiles text": "O=C(O)C1(C(=O)O)CC(OC2CCN(c3ccc(-c4nc5cc(F)ccc5[nH]4)cn3)CC2)C1", "recorded endpoint": "IC50", "value comparator": "=", "obs value": 71}
{"smiles text": "CN(C)CCNC(=O)c1cc(Cl)c(NC(=O)N2CCN(c3ccc(NC(=O)CCCc4ccccc4)cc3)CC2)c(Cl)c1", "recorded endpoint": "IC50", "value comparator": "=", "obs value": 91.2}
{"smiles text": "O=C(O)CCc1ccc(-c2csc3c(-c4ccc(NC(=O)Nc5cccc(F)c5)cc4)ncnc23)cc1", "recorded endpoint": "IC50", "value comparator": "<", "obs value": 1}
{"smiles text": "CC(C)N(Cc1cc(Cl)c(NC(=O)N2CCN(c3ccc(NC(=O)c4cccc(N5CCCC5)c4)cc3)CC2)c(Cl)c1)C(C)C", "recorded endpoint": "IC50", "value comparator": "=", "obs value": 4.17}
{"smiles text": "O=C(CCCc1ccccn1)Nc1ccc(N2CCN(C(=O)Nc3c(Cl)cccc3Cl)CC2)cc1", "recorded endpoint": "IC50", "value comparator": "=", "obs value": 123}
{"smiles text": "COc1cc(NC(=O)Nc2ccc(-c3ncnc4c(-c5ccc(CCC(=O)O)cc5)csc34)cc2)cc(OC)c1OC", "recorded endpoint": "IC50", "value comparator": "<", "obs value": 5}

* * *

Across several publications, the following pIC50 results were reported for human DGAT1 (Homo sapiens, UniProt O75907).
pIC50: −log10 of the molar value.
recorded endpoint: pIC50

{"compound": "CC(C)N(NC(=O)c1ccc(O)cc1)C(=O)/C=C/c1cn(C(=O)OC(C)(C)C)c2ccccc12", "value comparator": "=", "obs value": 4.65}
{"compound": "CC1(C)Oc2ncnc(N)c2N=C1c1ccc(C2CCC(=CC(=O)O)CC2)cc1 (stereo not drawn)", "value comparator": ">", "obs value": 8.00}
{"compound": "Cc1nc(C)c(-c2ccc(-c3ccc(CC(=O)NCC(=O)O)cc3Cl)cc2)nc1C(N)=O", "value comparator": "=", "obs value": 7.62}
{"compound": "O=C(O)C[C@H]1CC[C@H](OC2CCN(c3ccc(-c4nc5ccc(F)cc5[nH]4)cn3)CC2)CC1", "value comparator": "=", "obs value": 8.22}
{"compound": "O=C(O)Cc1ccc(-c2csc3c(-c4ccc(Nc5nc6ccccc6s5)cc4)ncnc23)cc1", "value comparator": ">", "obs value": 8.30}
{"compound": "O=C(CNc1ccc(F)cc1)Nc1ccc(N2CCN(C(=O)Nc3c(Cl)cccc3Cl)CC2)cc1", "value comparator": "=", "obs value": 7.06}
{"compound": "CC(C)N(NC(=O)c1ccccc1)C(=O)/C=C/c1cn(C(=O)CC(C)(C)C)c2ccccc12", "value comparator": "=", "obs value": 5.28}
{"compound": "COc1ccc(CC(=O)Nc2ccc(N3CCN(C(=O)C4(c5c(Cl)cccc5Cl)CC4)CC3)cc2)cc1", "value comparator": "=", "obs value": 5.40}
{"compound": "O=C(O)C[C@H]1CC[C@@H](OC2CCN(c3ccc(-c4nc5cc(F)c(F)cc5[nH]4)cn3)CC2)CC1", "value comparator": "=", "obs value": 8.52}
{"compound": "O=C(O)[C@@H]1[C@@H]2C[C@H](OC3CCN(c4ccc(-c5nc6cc(C(F)(F)F)ccc6[nH]5)cn4)CC3)C[C@@H]21", "value comparator": "=", "obs value": 7.96}
{"compound": "CCOC(=O)[C@H]1CC[C@H](OC2CCN(c3ccc(-c4nc5cc(F)ccc5[nH]4)cn3)CC2)CC1", "value comparator": "=", "obs value": 7.15}
{"compound": "O=C(O)CCc1ccc(-c2csc3c(-c4ccc(NC(=O)Nc5ccc(N6CCOCC6)cc5)cc4)ncnc23)cc1", "value comparator": ">", "obs value": 8.00}

* * *

Across several publications, the following pIC50 results were reported for human DGAT1 (Homo sapiens, UniProt O75907).
pIC50: −log10 of the molar value.

{"molecule": "CCCCCCC(=O)Nc1ccc(N2CCN(C(=O)Nc3c(Cl)cccc3Cl)CC2)cc1", "pIC50": 8.05}
{"molecule": "O=C(CCCc1ccccc1)Nc1ccc(N2CCN(C(=O)C(O)c3ccc(F)cc3)CC2)cc1 (stereo not shown)", "pIC50": 5.39}
{"molecule": "O=C(O)CC1(CC(F)(F)F)CCc2cc(-c3cnc(NC(=O)NC4CCC4)cn3)ccc2C1=O (stereo not shown)", "pIC50": 7.56}
{"molecule": "Cc1cc(Br)cc(C)c1NC(=O)N1CCN(c2ccc(NC(=O)CCCc3ccccc3)cc2)CC1", "pIC50": 7.42}
{"molecule": "CC(C)(O)c1ccc(-n2ccc3cc(N4CCOc5ncnc(N)c5C4=O)ccc32)cn1", "pIC50": 7.54}

* * *

pIC50: −log10 of the molar value.
Across several publications, the following pIC50 results were reported for human DGAT1 (Homo sapiens).

{"compound": "CCOc1ncc(-n2ccc3cc(N4CCOc5ncnc(N)c5C4=O)ccc32)cn1", "measured on": "human DGAT1 (Homo sapiens)", "value comparator": "=", "pIC50": 7.62}
{"compound": "CCOC(=O)c1ccc(N2CCCN(CC(=O)Nc3ccc(C4CCN(C(=O)Nc5c(Cl)cccc5Cl)CC4)cc3)CC2)cc1", "measured on": "human DGAT1 (Homo sapiens)", "value comparator": "=", "pIC50": 6.86}
{"compound": "O=C(CCCc1ccccc1)Nc1ccc(C2CCN(C(=O)Nc3c(Cl)cc(C(=O)O)cc3Cl)CC2)cc1", "measured on": "human DGAT1 (Homo sapiens)", "value comparator": "=", "pIC50": 7.68}
{"compound": "Cc1cncc(-c2nnc(-c3ccc4nc(-c5c(Cl)cccc5Cl)[nH]c4c3)o2)c1", "measured on": "human DGAT1 (Homo sapiens)", "value comparator": "=", "pIC50": 5.64}
{"compound": "CN(C)c1ccc(NC(=O)Nc2ccc(-c3ncnc4c(-c5ccc(CC(=O)O)cc5)csc34)cc2)cc1", "measured on": "human DGAT1 (Homo sapiens)", "value comparator": ">", "pIC50": 8.00}
{"compound": "CC(C)CC(NC(=O)OC(C)(C)C)C(=O)Nc1ccc(C2CCN(C(=O)Nc3c(Cl)cccc3Cl)CC2)cc1 (single isomer, unassigned)", "measured on": "human DGAT1 (Homo sapiens)", "value comparator": "=", "pIC50": 7.45}
{"compound": "O=C(CCCc1ccccc1)Nc1ccc(N2CCN(C(=O)Nc3c(Cl)cc(C(=O)N4CCOCC4)cc3Cl)CC2)cc1", "measured on": "human DGAT1 (Homo sapiens)", "value comparator": "=", "pIC50": 7.91}
{"compound": "Cc1ccccc1-c1cccc(C(=O)Nc2ccc(N3CCN(/C(=N\\C#N)Nc4c(Cl)cc(CN5CCCC5)cc4Cl)CC3)cc2)c1", "measured on": "human DGAT1 (Homo sapiens)", "value comparator": "=", "pIC50": 8.62}
